target: KRAS G12C (Homo sapiens, UniProt P01116, G12C); assay: GDP-GTP exchange assay (KRAS_G12C exchange assay); conditions: bodipy-loaded KRAS G12C 2.5 nM, SOS1 150 nM, 2 hours pre-incubation with inhibitor; read-out: G12C_exchange
Sequence (P01116 1-188 isoform P01116-2 G12C): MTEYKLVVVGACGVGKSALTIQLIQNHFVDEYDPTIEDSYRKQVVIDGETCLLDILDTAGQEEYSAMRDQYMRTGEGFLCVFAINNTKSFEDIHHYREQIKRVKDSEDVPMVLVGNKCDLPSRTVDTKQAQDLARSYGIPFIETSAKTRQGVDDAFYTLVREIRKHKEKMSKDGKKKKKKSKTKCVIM
pIC50: −log10 of the molar value.
Measured pIC50, listed per entry for reference.

What pIC50 value was documented for this molecule, COC/C=C/C(=O)N1CC[C@H](n2nnc3c(O[C@@H](C)[C@@H]4CCCN4C)nc4c(F)c(-c5c(F)cccc5OC)c(C)cc4c32)C[C@H]1CC#N (single isomer, unassigned) [Example 34b] ? ≥ 7.30

What pIC50 value was documented for this molecule, C=C(F)C(=O)N1CC[C@H](n2nnc3c(O[C@@H](C)[C@@H]4CCCN4C)nc4c(F)c(-c5c(F)ccc6cccnc56)c(C)cc4c32)C[C@H]1CC#N (single isomer, unassigned) [Example 27b] ? ≥ 7.30

What pIC50 value was documented for this molecule, COC/C=C/C(=O)N1CC[C@H](n2nnc3c(O[C@@H](C)[C@@H]4CCCN4C)nc4c(F)c(-c5c(C)ncc6ccccc56)c(C)cc4c32)C[C@H]1CC#N (single isomer, unassigned) [Example 24a] ? ≥ 7.30

What pIC50 value was documented for this molecule, C=C(F)C(=O)N1CC[C@H](n2nnc3c(O[C@@H](C)[C@@H]4CCCN4C)nc4c(F)c(-c5c(C)ncc6ccccc56)c(C)cc4c32)C[C@H]1CC#N (single isomer, unassigned) [Example 23a] ? 7.00 to 7.30

What pIC50 value was documented for this molecule, COC/C=C/C(=O)N1CC[C@H](n2nnc3c(O[C@@H](C)[C@@H]4CCCN4C)nc4c(F)c(-c5c(F)cccc5OC)c(C)cc4c32)C[C@H]1CC#N (single isomer, unassigned) [Example 34a] ? ≥ 7.30

====

test system: KRAS_G12C pERK; assay: Cellular pERK HTRF assay (KRAS_G12C pERK assay); format: cell-based, human; details: KRAS G12C cells, 4 hours incubation with compound; read-out: G12C_pERK
Measured IC50, listed per entry for reference.

These solved cases illustrate the format of a correct answer.
molecule: CN(C)C1(C)CN(c2nc3c(Cl)c(-c4ccc(F)c5cccnc45)c(Cl)cc3c3c2nnn3[C@H]2CCN(C(=O)/C=C/CF)[C@H](CC#N)C2)C1 (single isomer, unassigned) [Example 19b]
IC50: ≤ 0.05 µM
//
molecule: C=CC(=O)N1CCC(n2nnc3c(O[C@@H](C)[C@@H]4CCCN4C)nc4c(F)c(-c5ccc(F)c6cccnc56)c(C(F)(F)F)cc4c32)CC1 (single isomer, unassigned)
IC50: 0.05 to 0.1 µM

# evaluate next
What IC50 value was documented for this molecule, COc1c(Cl)cccc1-c1c(C(F)(F)F)cc2c(nc(N3CC(C)(N(C)C)C3)c3nnn([C@H]4CCN(C(=O)/C=C/CF)[C@H](CC#N)C4)c32)c1F (single isomer, unassigned) ? ≤ 0.05 µM
